Give measured inhibition for each item. Keep answers brief.
assay name: NOMO-1 AML cell viability reduction, primary screen, STK33 inhibitor project, CellTiter-Glo luminescence (AID 2330)
measurement context: NOMO-1 AML viability, 72 h, hits give high values, concentration not given here
The campaign covered roughly 37,000 compounds. About 2,800 (7.6%) were called active. Inconclusive results (about 1%) are left out. What follows is part of a selection rich in actives, with near analogues and random picks from the rest.
One number for each entry, in %.

Completed entries (count: 3):
compound	quantity unit	inhibition
Cc1noc(C)c1NC(=O)N(C)C[C@@H]1Oc2ccc(NS(C)(=O)=O)cc2C(=O)N([C@@H](C)CO)C[C@@H]1C	%	-15.6
COc1ccc(CCCOC(Cn2ccnc2)c2ccc(OC)cc2)cc1 (stereo not given)	%	114
C=CC(=O)c1ccc2ccccc2c1	%	98.4

Here are 2 compounds. What values of inhibition were reported for them?
1. Cc1cc(=O)[nH]c(SCc2cn3c(C)cc(C)nc3n2)n1
2. C[C@H]1CN([C@@H](C)CO)C(=O)Cc2cc(NC(=O)Nc3ccc(C(F)(F)F)cc3)ccc2O[C@H]1CN(C)Cc1ccc(C(=O)O)cc1

A:
1. -6.02
2. 12.6

###

assay name: NOMO-1 AML cell viability reduction, primary screen, STK33 inhibitor project, CellTiter-Glo luminescence (AID 2330)
measurement context: NOMO-1 AML viability, 72 h, concentration not given here
Hit rate of the full screen: of about 37,000 compounds, about 2,800 (7.6%) were called active. About 1% were inconclusive and are not listed. Rule as the data show it: active = inhibition above about 80%; inconclusive = no clear call, values can overlap the other calls; inactive = below that. Only a selection was taken, and actives are over-represented in it overall.
Log the outcome using a class from active, inactive

Solved entries (count: 5):
compound	label class
CC(C)NC(=O)N(C)C[C@@H]1Oc2c(NC(=O)c3nc4ccccc4s3)cccc2C(=O)N([C@H](C)CO)C[C@H]1C	inactive
C[C@@H]1CN([C@H](C)CO)C(=O)c2cccc(NS(=O)(=O)c3ccc(Cl)cc3)c2O[C@@H]1CN(C)Cc1ccc(Oc2ccccc2)cc1	inactive
C[C@@H]1CN([C@H](C)CO)C(=O)c2cccc(NC(=O)c3nc4ccccc4s3)c2O[C@@H]1CN(C)Cc1ccc(Oc2ccccc2)cc1	inactive
C[C@H](CO)N1C[C@H](C)[C@@H](CN(C)Cc2ccc3c(c2)OCO3)Oc2ccc(NC(=O)Nc3ccc(F)cc3)cc2C1=O	inactive
COc1ccc(CN(C)C[C@H]2Oc3c(NC(=O)C4CCCCC4)cccc3C(=O)N([C@@H](C)CO)C[C@H]2C)cc1	inactive

Q: What outcome does the record of this test show for `C[C@@H]1CN([C@@H](C)CO)C(=O)c2cc(NS(C)(=O)=O)ccc2O[C@H]1CN(C)C(=O)Nc1ccc(F)cc1` ?
A: inactive

Q: What outcome does the record of this test show for `Cn1c(=O)c2c(nc(SCC(=O)O)n2Cc2ccc(F)cc2)n(C)c1=O` ?
A: inactive

Q: What outcome does the record of this test show for `Cc1noc(C)c1NC(=O)Nc1ccc2c(c1)CC(=O)N([C@@H](C)CO)C[C@@H](C)[C@@H](CN(C)Cc1ccc(Cl)c(Cl)c1)O2` ?
A: inactive

Q: What outcome does the record of this test show for `COC(=O)c1cc(OC)c(OC)cc1NC(=O)c1cc(-c2ccc(C)o2)nc2ccccc12` ?
A: active

###

assay name: NOMO-1 AML cell viability reduction, primary screen, STK33 inhibitor project, CellTiter-Glo luminescence (AID 2330)
measurement context: NOMO-1 AML viability, 72 h, hits give high values, concentration not given here
Hit rate of the full screen: of about 37,000 compounds, about 2,800 (7.6%) were called active. Not shown: some 1% with an inconclusive outcome. This is one part of a sample in which actives are shown more often than they occur.
test readout: inhibition (%)
Answers are plain numbers, in %.

Completed entries (count: 4):
compound	test readout	quantitative readout
COc1cc(O)cc(C)c1C(=O)OC1C(CO)OC(n2ccc(=O)[nH]c2=O)C1OC(C)=O (centres undefined)	inhibition	6.97
N=c1n(CC(=O)c2ccc(Cl)c(Cl)c2)c2ccccc2n1Cc1ccccc1	inhibition	92.6
CCN1CCN(S(=O)(=O)c2cc(OCC(N)=O)c(C)cc2Cl)CC1	inhibition	12.8
Cc1ccnc(NC(c2cccc(Br)c2)c2ccc3ccc(C)nc3c2O)c1 (centres undefined)	inhibition	126

Here are 6 compounds. What values of inhibition were reported for them?
1. Cc1ccc2nc(-c3ccncc3)cc(C(=O)NCc3ccccn3)c2c1
2. O=c1n(Cc2ccccc2)c2ccccc2n1Cc1ccccc1
3. COc1ccc(OC)c(NC(=O)CSc2n[nH]c(-c3ccncc3)n2)c1
4. O=[N+]([O-])c1cccc(NC(=S)Nc2nn(Cc3ccc(Cl)cc3Cl)cc2Cl)c1
5. C[C@H]1CN([C@@H](C)CO)C(=O)c2cccc(NC(=O)Nc3ccccc3)c2O[C@@H]1CN(C)S(C)(=O)=O
6. O=C(c1ccccc1)c1cnn(-c2ccc(Cl)cc2)n1

A:
1. 53.9
2. 23
3. 14.4
4. 111
5. -0.709
6. 18.2

Here are 6 compounds. What values of inhibition were reported for them?
1. Cc1noc(C)c1S(=O)(=O)Nc1ccc2c(c1)CC(=O)N([C@@H](C)CO)C[C@@H](C)[C@@H](CN(C)C(=O)Nc1ccc(C(F)(F)F)cc1)O2
2. C[C@H](CO)N1C[C@H](C)[C@H](CN(C)C(=O)NC2CCCCC2)Oc2ccc(NC(=O)c3ccncc3)cc2CC1=O
3. Cc1ccccc1OCC(=O)Nc1cc(-c2nc3ccccc3s2)c(Cl)cc1Cl
4. COc1ccc(-c2nnc(SCC(=O)Nc3cccc(SC)c3)n2C)cc1
5. Cc1ccc(S(=O)(=O)N(C)C[C@H]2Oc3ccc(NC(=O)Nc4cccc5ccccc45)cc3CC(=O)N([C@H](C)CO)C[C@H]2C)cc1
6. Cc1ccnc(NC(c2cccc([N+](=O)[O-])c2)c2ccc3ccc(C)nc3c2O)c1 (centres undefined)

A:
14.7
-3.17
6.92
-20
23.8
101

Here are 2 compounds. What values of inhibition were reported for them?
1. COc1ccc(NC(=O)Nc2nn(Cc3ccc(Cl)cc3Cl)cc2Br)cc1OC
2. CN(C)c1nc(SCCO)nc(N(C)C)n1

A:
[39.9, 33.8]

Q: Field request: inhibition | item: `COC(=O)c1c(NC(=O)c2cc(-c3ccccn3)nc3c(C)cc(C)cc23)sc(C)c1C`
A: 19.6

###

assay name: NOMO-1 AML cell viability reduction, primary screen, STK33 inhibitor project, CellTiter-Glo luminescence (AID 2330)
measurement context: NOMO-1 AML viability, 72 h, concentration not given here
Out of some 37,000 compounds screened, about 2,800 (7.6%) were called active. About 1% were inconclusive and are not listed. Cut-off read from the data, not from the text of the source: active = inhibition above about 80%; inconclusive = no clear call, values can overlap the other calls; inactive = below that. This excerpt belongs to a sample that is enriched for actives.
Log the outcome using a class from active, inactive

molecule	label class
Cn1nnc2cc(C(=O)N(CCO)c3ccccc3)ccc21	inactive

Q: What outcome does the record of this test show for `COc1ccc(NC(=O)N(C)C[C@@H]2Oc3c(NC(=O)NC4CCCCC4)cccc3C(=O)N([C@H](C)CO)C[C@H]2C)cc1` ?
A: inactive

Q: What outcome does the record of this test show for `C[C@@H]1CN([C@H](C)CO)C(=O)c2cccc(NC(=O)c3cnccn3)c2O[C@@H]1CN(C)Cc1ccc(C(=O)Nc2ccccc2N)cc1` ?
A: active

Q: What outcome does the record of this test show for `C[C@@H]1CN([C@@H](C)CO)C(=O)c2cc(NC(=O)C3CCCCC3)ccc2O[C@@H]1CN(C)S(=O)(=O)c1ccc(F)cc1` ?
A: inactive

Q: What outcome does the record of this test show for `Cc1cc(C(=O)Nc2cccc3c2O[C@@H](CN(C)Cc2ccc(C(=O)Nc4ccccc4N)cc2)[C@H](C)CN([C@@H](C)CO)C3=O)n(C)n1` ?
A: active

Q: What outcome does the record of this test show for `COc1ccc(CCn2c(C)nc(=O)c(-c3ccccc3)c2C)cc1OC` ?
A: inactive

Q: What outcome does the record of this test show for CC(=O)Nc1ccc(S(=O)(=O)N2CCCC2C(=O)O)cc1 (stereo not drawn) ?
A: inactive

Q: What outcome does the record of this test show for `C[C@H]1CN([C@@H](C)CO)C(=O)c2cc(NC(=O)Cn3cnnn3)ccc2O[C@H]1CN(C)Cc1ccc(C(=O)O)cc1` ?
A: inactive

###

assay name: NOMO-1 AML cell viability reduction, primary screen, STK33 inhibitor project, CellTiter-Glo luminescence (AID 2330)
measurement context: NOMO-1 AML viability, 72 h, hits give high values, concentration not given here
Out of some 37,000 compounds screened, about 2,800 (7.6%) were called active. Inconclusive results (about 1%) are left out. The full list was thinned out, with actives kept by preference.
test readout: inhibition (%)
Give bare numbers, in %.

smiles repr	quantity unit	quantitative readout
O=C(CC(=O)c1ccccc1O)c1ccccc1	%	42.5
CC(=O)N[C@@H](C(=O)O[C@H]1CCC(C)(C)[C@@H]2CCC3=C(COC3=O)[C@@]12C)C(C)C	%	25.2
COc1cc(-c2coc3cc(O[C@@H]4O[C@H](CO)[C@@H](O)[C@H](O)[C@H]4O)c(OC)c(O)c3c2=O)cc(O)c1OC	%	-24
N#Cc1c(SCC(=O)Nc2ccc(F)cc2Cl)nc2c(c1C(F)(F)F)CCCCC2	%	24.5

Q: Field request: inhibition | item: `Cc1cc(C)cc(OCC(=O)Nc2cccc(-c3nnc(-c4ccccc4)o3)c2)c1`
A: 42.7

Each recorded value in this set is attributed to PubChem BioAssay AID2330.
